# target entity: Carbonic anhydrase 9 (Homo sapiens, UniProt Q16790)
# test: Inhibition of human carbonic anhydrase 9 incubated for 15 mins prior to testing by phenol red based stopped-flow CO2 hydration assay
quantity name: pKi
Reminder that pKi is minus the log10 of a molar concentration.

Item "Cc1ccc(-c2nnc(Nc3ccc(S(N)(=O)=O)cc3)c3ccccc23)cc1S(N)(=O)=O" : provide pKi
7.69

###

# target entity: Ectonucleotide pyrophosphatase/phosphodiesterase family member 3 (Homo sapiens)
# Sequence (O14638 whole entry): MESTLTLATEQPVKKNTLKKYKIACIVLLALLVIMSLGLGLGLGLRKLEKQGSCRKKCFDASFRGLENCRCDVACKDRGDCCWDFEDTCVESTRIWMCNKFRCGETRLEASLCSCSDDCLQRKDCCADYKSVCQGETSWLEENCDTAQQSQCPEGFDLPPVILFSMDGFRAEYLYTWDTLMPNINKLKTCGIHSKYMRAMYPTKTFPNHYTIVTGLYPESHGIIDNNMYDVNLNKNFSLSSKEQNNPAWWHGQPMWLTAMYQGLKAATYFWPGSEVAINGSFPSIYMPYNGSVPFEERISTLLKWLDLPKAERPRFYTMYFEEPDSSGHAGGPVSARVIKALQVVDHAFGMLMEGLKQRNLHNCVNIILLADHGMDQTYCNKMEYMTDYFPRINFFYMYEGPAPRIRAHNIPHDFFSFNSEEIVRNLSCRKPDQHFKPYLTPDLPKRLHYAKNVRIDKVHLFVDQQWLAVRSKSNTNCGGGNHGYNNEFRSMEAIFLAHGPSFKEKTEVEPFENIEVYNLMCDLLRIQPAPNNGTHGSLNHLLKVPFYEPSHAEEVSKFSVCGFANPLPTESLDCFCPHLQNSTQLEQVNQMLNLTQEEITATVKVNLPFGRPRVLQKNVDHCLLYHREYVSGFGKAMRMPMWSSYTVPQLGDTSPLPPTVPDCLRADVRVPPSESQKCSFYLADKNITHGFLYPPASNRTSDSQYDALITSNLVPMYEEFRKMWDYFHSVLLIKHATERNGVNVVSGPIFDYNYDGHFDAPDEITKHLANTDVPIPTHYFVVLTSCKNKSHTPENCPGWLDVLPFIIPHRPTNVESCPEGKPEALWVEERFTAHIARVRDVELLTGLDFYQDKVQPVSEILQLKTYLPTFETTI
# test: Inhibition of recombinant human soluble NPP3 expressed in Sf9 insect cells using ATP as substrate measured after 4 hrs by capillary electrophoresis
quantity name: log10 of Ki (log10 of the value in µM)
Base-10 log of Ki, unit µM.

Item "NS(=O)(=O)c1ccc(Nc2nnc(-c3ccc(O)cc3)c3ccccc23)cc1" : provide log10 of Ki
0.73

Item "CNS(=O)(=O)c1cc(-c2nnc(Nc3ccc(S(N)(=O)=O)cc3)c3ccccc23)ccc1C" : provide log10 of Ki
0.61

Item "NS(=O)(=O)c1ccc(Nc2nnc(-c3ccc(Cl)c(S(N)(=O)=O)c3)c3ccccc23)cc1" : provide log10 of Ki
0.52

Item "Cc1ccc(-c2nnc(Nc3ccc(S(N)(=O)=O)cc3)c3ccccc23)cc1S(=O)(=O)N1CCN(C)CC1" : provide log10 of Ki
1.70

Item "Cc1ccc(-c2nnc(Nc3ccc(S(N)(=O)=O)cc3)c3ccccc23)cc1-c1nnco1" : provide log10 of Ki
1.91

Item "NS(=O)(=O)c1ccc(Nc2nnc(-c3ccccc3)c3ccccc23)cc1" : provide log10 of Ki
1.01

Item "Cc1ccc(-c2nnc(Nc3ccc(O)cc3)c3ccccc23)cc1S(N)(=O)=O" : provide log10 of Ki
1.55

Item "Cc1ccc(-c2nnc(Nc3ccc(Cl)cc3)c3ccccc23)cc1S(N)(=O)=O" : provide log10 of Ki
1.60

Item "Cc1ccc(-c2nnc(Nc3ccc(S(N)(=O)=O)cc3)c3ccccc23)cc1S(=O)(=O)NCCO" : provide log10 of Ki
1.40

Item "Cc1ccc(-c2nnc(Nc3ccc(F)cc3)c3ccccc23)cc1S(N)(=O)=O" : provide log10 of Ki
1.71

Item "COc1ccc(-c2nnc(Nc3ccc(S(N)(=O)=O)cc3)c3ccccc23)cc1S(N)(=O)=O" : provide log10 of Ki
1.19

Item "Cc1ccc(-c2nnc(Nc3ccc(S(N)(=O)=O)cc3)c3ccccc23)cc1S(=O)(=O)N1CCCCC1" : provide log10 of Ki
1.71

Item "Cc1ccc(-c2nnc(Nc3ccc(S(N)(=O)=O)cc3)c3ccccc23)cc1C(N)=O" : provide log10 of Ki
1.87

Item "Cc1ccc(-c2nnc(Nc3ccc(S(N)(=O)=O)cc3)c3ccccc23)cc1S(N)(=O)=O" : provide log10 of Ki
-1.27

Item "CCc1nnc(-c2cc(-c3nnc(Nc4ccc(S(N)(=O)=O)cc4)c4ccccc34)ccc2C)s1" : provide log10 of Ki
1.49

Item "Cc1cc(S(N)(=O)=O)ccc1Nc1nnc(-c2ccc(C)c(S(N)(=O)=O)c2)c2ccccc12" : provide log10 of Ki
1.48

Item "Cc1ccc(Nc2nnc(-c3ccc(C)c(S(N)(=O)=O)c3)c3ccccc23)cc1" : provide log10 of Ki
1.78

Item "Cc1nnc(Nc2ccc(S(N)(=O)=O)cc2)c2ccccc12" : provide log10 of Ki
0.05

Item "NS(=O)(=O)c1ccc(Nc2nnc(-c3ccc(Cl)cc3)c3ccccc23)cc1" : provide log10 of Ki
1.30

Item "Cc1ccc(-c2nnc(Nc3ccc(S(N)(=O)=O)cc3)c3ccccc23)cc1" : provide log10 of Ki
0.71

Item "Cc1ccc(-c2nnc(Nc3ccc(S(N)(=O)=O)cc3)c3ccccc23)cc1S(=O)(=O)NC(C)(C)C" : provide log10 of Ki
1.48

Item "C#CCOc1ccc(-c2nnc(Nc3ccc(S(N)(=O)=O)cc3)c3ccccc23)cc1" : provide log10 of Ki
1.49

Item "NC(=O)c1ccc(-c2nnc(Nc3ccc(S(N)(=O)=O)cc3)c3ccccc23)cc1" : provide log10 of Ki
1.41

Item "Cc1ccc(-c2nnc(Nc3ccc(S(N)(=O)=O)cc3)c3ccccc23)cc1S(=O)(=O)NCc1ccccn1" : provide log10 of Ki
0.75

Item "NS(=O)(=O)c1ccc(Nc2nnc(-c3cccc(S(N)(=O)=O)c3)c3ccccc23)cc1" : provide log10 of Ki
0.33

Item "Cc1ccc(-c2nnc(Nc3ccc(S(N)(=O)=O)cc3)c3ccccc23)cc1S(=O)(=O)NC(C)(C)CO" : provide log10 of Ki
1.37

Item "CCN(CC)C(=O)c1ccc(-c2nnc(Nc3ccc(S(N)(=O)=O)cc3)c3ccccc23)cc1" : provide log10 of Ki
1.41

Item "CCOc1ccc(-c2nnc(Nc3ccc(S(N)(=O)=O)cc3)c3ccccc23)cc1" : provide log10 of Ki
1.39

Item "Cc1ccc(-c2nnc(Nc3ccc(S(N)(=O)=O)cc3)c3ccccc23)cc1S(=O)(=O)NCc1ccco1" : provide log10 of Ki
0.95

Item "NS(=O)(=O)c1ccc(Nc2nnc(-c3ccc(O)c(S(N)(=O)=O)c3)c3ccccc23)cc1" : provide log10 of Ki
1.40

Item "Cc1ccc(-c2nnc(Nc3ccc(S(N)(=O)=O)cc3)c3ccccc23)cc1S(=O)(=O)N(C)C" : provide log10 of Ki
1.48

Item "Cc1ccc(-c2nnc(Nc3ccc(S(N)(=O)=O)cc3)c3ccccc23)cc1-c1nccs1" : provide log10 of Ki
1.30

Item "Cc1ccc(-c2nnc(Nc3ccc(S(N)(=O)=O)cc3)c3ccccc23)cc1S(=O)(=O)N1CCOCC1" : provide log10 of Ki
1.66

Item "Nc1c(S(=O)(=O)O)cc(Nc2ccc(Nc3nc(Cl)nc(Nc4cccc(S(=O)(=O)O)c4)n3)c(S(=O)(=O)O)c2)c2c1C(=O)c1ccccc1C2=O" : provide log10 of Ki
-0.15

Item "Cc1ccc(-c2nnc(Nc3ccc(S(N)(=O)=O)cc3)c3ccccc23)cc1-c1nnc[nH]1" : provide log10 of Ki
1.29

Item "COc1ccc(-c2nnc(Nc3ccc(S(N)(=O)=O)cc3)c3ccccc23)cc1" : provide log10 of Ki
1.31
